# TARGET: androgen receptor (AR) (Homo sapiens, UniProt P10275, T878A)
# Construct: stably transfected eGFP-expressing LNCaP human prostate cancer cells (LN-ARR2PB-eGFP) containing an androgen responsive probasin-derived promoter; endogenous in cells; host or cells: LNCaP (LN-ARR2PB-eGFP)
# Sequence (P10275 1-920 T878A): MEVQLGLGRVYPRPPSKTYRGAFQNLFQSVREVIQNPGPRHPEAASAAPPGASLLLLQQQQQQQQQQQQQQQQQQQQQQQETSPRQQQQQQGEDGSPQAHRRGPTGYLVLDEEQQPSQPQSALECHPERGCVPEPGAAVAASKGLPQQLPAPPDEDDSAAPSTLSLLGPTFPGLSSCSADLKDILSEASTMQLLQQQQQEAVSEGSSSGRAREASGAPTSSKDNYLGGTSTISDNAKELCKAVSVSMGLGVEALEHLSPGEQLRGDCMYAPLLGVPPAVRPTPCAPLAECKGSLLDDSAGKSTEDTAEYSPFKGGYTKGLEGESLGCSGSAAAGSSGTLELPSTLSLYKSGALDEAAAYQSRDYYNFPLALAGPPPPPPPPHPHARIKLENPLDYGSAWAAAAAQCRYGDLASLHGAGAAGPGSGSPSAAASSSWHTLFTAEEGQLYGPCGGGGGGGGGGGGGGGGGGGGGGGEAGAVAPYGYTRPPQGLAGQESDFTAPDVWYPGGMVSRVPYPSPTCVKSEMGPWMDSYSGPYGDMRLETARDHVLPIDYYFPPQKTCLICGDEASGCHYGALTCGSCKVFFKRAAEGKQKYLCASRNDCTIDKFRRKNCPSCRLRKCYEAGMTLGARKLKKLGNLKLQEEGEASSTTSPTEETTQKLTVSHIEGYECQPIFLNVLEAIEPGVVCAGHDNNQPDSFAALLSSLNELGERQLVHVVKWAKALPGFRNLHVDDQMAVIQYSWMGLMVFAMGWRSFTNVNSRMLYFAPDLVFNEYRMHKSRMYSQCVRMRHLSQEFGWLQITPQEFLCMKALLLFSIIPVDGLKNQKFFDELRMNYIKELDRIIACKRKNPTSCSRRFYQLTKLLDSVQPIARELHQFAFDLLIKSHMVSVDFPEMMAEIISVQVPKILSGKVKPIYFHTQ
# ASSAY_OVERVIEW: eGFP cellular AR transcription assay
# Format: cell-based
# CONDITION_LABEL: eGFP IC50, LN-ARR2PBeGFP LNCaP cells, 0.1 nM R1881, 3 days incubation
Kindly state pIC50 for each of the entries shown.
Please note pIC50 is a logarithmic value: minus log10 of concentration in mol/L. Answer with that number alone.

Any idea what pIC50 was measured for N#C/C(=C\c1ccc(F)cc1)c1c[nH]c2ccccc12 [Compound 13436] ?
6.22

Can you handle Oc1ccc(Cn2c(-c3ccc(O)cc3)nc3ccccc32)cc1 [Compound 13029] next?
5.49

What do you get for c1ccc2nc(-c3n[nH]c4ccccc34)ccc2c1 [Compound 13579] ?
7.00
